Each recorded value in this set is attributed to patent US12534457B2.

test system: Ba/F3 cells expressing EGFR Del19/C797S (EGFR DC); test: Proliferation inhibitory activity, Ba/F3 cells expressing EGFR Del19/C797S (CellTiter-Glo); assay type: cell-based; conditions: Mus musculus, BaF3, 72 hours of compound treatment
Listing of recorded GI50 by entry.

# count of solved cases: 10
1) CN1CCN(C2CCN(c3c(F)cc(Nc4cc(N5OCC[C@@H]5c5ccccc5)ncn4)cc3F)CC2)CC1 [Example 123] ... < 50 nM
2) COc1cc(N2CCC(N3CCN(C)CC3)CC2)ccc1Nc1cc(N2OCC[C@@H]2c2cccc(N(C)C)c2)ncn1 [Example 131] ... 50 to 500 nM
3) CN1CCC(N2CCN3c4ccc(Nc5cc(N6OCC[C@@H]6c6ccccc6)ncn5)cc4OC[C@H]3C2)CC1 [Example 48] ... < 50 nM
4) COc1cc(Nc2cc(N3OCC[C@@H]3c3cccc(F)c3F)ncn2)ccc1N1CCC(N2CCN(C)CC2)CC1 [Example 128] ... < 50 nM
5) CC(C)(C)OC(=O)N1CCc2ccc(Nc3cc(N4OCC[C@@H]4c4ccccc4)ncn3)cc2C1 [Example 134] ... < 50 nM
6) COc1cc(N2CCC(N3CC[C@@H](N(C)C)C3)CC2)ccc1Nc1cc(N2OCC[C@@H]2c2cccc(F)c2F)ncn1 [Example 212] ... < 50 nM
7) Cc1cc(Nc2cc(N3OCC[C@@H]3c3ccccc3)ncn2)ccc1N1CCC(N2CCN(C)CC2)CC1 [Example 53] ... < 50 nM
8) COc1cc2c(cc1Nc1cc(N3OCC[C@@H]3c3cc(F)cc(F)c3)ncn1)NCC21CCN(C)CC1 [Example 154] ... < 50 nM
9) COc1cc(N2CCC(N3CCN(C)CC3)CC2)ccc1Nc1cc(N2OCC[C@@H]2c2ccc(F)cc2)ncn1 [Example 33] ... < 50 nM
10) c1ccc([C@H]2CCON2c2cc(Nc3ccc4c(c3)CC[C@H](N3CCCC3)CC4)ncn2)cc1 [Example 83] ... < 50 nM

Record summary for COc1cc(N2CCC(N3CCN(C4CC4)CC3)CC2)ccc1Nc1cc(N2OCC[C@@H]2c2cc(F)cc(F)c2)ncn1 [Example 6] : reported GI50 = 50 to 500 nM

Record summary for Fc1cccc([C@H]2CCON2c2cc(Nc3ccc([C@H]4CCON4)cc3)ncn2)c1F [Example 174] : reported GI50 = 50 to 500 nM

Record summary for CCc1cc(Nc2cc(N3OCC[C@@H]3c3ccc(F)cc3)ncn2)c(OC)cc1N1CCC(N2CCN(C)CC2)CC1 [Example 91] : reported GI50 = < 50 nM

* * *

target: ERBB4/HER4 (Homo sapiens, UniProt Q15303); assay: EGFR-family mutant enzyme activity (Reaction Biology)
Sequence (Q15303 26-1308): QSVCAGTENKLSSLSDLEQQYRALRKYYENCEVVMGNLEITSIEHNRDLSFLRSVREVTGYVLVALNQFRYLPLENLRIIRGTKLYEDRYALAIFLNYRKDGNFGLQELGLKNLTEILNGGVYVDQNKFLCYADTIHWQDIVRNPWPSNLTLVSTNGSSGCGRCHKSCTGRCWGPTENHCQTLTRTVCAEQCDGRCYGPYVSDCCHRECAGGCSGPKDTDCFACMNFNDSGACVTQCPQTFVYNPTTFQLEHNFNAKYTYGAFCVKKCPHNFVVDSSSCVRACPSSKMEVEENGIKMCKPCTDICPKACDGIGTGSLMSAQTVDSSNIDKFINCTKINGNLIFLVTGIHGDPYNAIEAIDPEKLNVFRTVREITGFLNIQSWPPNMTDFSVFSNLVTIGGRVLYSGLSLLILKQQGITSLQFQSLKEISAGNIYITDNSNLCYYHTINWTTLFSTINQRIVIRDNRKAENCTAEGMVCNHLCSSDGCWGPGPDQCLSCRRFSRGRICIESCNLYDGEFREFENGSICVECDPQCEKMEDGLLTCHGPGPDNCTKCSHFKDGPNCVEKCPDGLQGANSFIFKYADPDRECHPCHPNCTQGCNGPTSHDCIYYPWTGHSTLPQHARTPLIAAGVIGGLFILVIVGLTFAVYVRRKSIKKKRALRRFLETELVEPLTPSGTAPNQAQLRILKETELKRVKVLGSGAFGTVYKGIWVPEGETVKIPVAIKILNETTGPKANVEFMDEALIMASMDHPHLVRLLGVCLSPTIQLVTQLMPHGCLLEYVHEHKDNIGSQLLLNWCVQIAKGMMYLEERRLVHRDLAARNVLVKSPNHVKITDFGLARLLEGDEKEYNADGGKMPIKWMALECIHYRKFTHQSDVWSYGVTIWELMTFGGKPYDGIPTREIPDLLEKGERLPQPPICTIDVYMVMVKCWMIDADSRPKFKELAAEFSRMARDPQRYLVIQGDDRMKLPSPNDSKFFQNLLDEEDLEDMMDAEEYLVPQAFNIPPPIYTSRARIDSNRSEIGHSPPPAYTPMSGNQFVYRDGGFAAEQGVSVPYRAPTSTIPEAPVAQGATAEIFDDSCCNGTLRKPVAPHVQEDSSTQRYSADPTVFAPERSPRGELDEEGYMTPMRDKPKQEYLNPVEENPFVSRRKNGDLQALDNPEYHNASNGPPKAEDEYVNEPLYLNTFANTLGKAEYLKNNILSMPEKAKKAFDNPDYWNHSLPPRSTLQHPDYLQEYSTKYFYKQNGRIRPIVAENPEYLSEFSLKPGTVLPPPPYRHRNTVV
quantityMeasured: IC50
Quote the value and follow it with the unit of measurement.

Record summary for COc1cc(N2CCC(N3CCN(C)CC3)CC2)ccc1Nc1cc(N2OCC[C@@H]2c2ccc(F)cc2F)ncn1 [Example 34] : reported IC50 = 41.7 nM

* * *

target: EGFR (L747S) (Homo sapiens, UniProt P00533, L747S); construct: purchased Reaction Biology; test: EGFR-family mutant enzyme activity (Reaction Biology); format: biochemical
Sequence (P00533 25-1210 L747S): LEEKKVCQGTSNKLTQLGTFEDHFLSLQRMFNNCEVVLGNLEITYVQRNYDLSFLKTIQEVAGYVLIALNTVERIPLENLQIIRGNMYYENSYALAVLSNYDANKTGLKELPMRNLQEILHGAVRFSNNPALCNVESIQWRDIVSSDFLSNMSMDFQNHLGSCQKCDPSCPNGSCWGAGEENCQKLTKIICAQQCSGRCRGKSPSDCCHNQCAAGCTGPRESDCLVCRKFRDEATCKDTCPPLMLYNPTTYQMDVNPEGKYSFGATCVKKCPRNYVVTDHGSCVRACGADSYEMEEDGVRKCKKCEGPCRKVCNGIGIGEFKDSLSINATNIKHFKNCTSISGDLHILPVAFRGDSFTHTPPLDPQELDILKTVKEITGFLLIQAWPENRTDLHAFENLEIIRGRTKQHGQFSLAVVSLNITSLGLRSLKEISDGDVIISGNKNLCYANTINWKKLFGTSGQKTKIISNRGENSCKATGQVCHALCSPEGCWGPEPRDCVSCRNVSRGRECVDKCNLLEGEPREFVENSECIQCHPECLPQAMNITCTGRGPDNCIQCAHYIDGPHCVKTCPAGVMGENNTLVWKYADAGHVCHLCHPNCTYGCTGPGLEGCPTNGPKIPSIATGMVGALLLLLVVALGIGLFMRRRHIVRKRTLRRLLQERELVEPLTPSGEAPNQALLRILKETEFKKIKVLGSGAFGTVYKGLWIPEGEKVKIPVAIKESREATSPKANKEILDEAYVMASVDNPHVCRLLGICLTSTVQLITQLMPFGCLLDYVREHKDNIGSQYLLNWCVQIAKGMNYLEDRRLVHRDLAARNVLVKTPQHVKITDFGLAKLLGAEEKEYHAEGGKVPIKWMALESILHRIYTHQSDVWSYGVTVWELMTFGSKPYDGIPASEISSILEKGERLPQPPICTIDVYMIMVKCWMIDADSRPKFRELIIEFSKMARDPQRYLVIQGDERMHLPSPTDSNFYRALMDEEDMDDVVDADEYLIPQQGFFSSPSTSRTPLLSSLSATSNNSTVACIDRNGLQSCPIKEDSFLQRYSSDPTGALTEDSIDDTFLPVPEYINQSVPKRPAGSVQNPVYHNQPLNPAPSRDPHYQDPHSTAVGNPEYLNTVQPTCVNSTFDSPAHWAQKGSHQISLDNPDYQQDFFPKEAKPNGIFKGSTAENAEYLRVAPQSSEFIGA
quantityMeasured: IC50

Record summary for COc1cc(N2CCC(N3CCN(C)CC3)CC2)ccc1Nc1cc(N2OCC[C@@H]2c2ccc(F)cc2F)ncn1 : reported IC50 = < 0.5 nM
